Each record here notes measured Giardia (16 uM) Mean % inhibition.
# Test system: G. lamblia trophozoites (luciferase expressing, WBC6)
# test_name: microbe, parasite or virus in culture
# Format: cell-based, Giardia lamblia
# experimental_parameters: initial Pathogen Box screen, single concentration 16 µM, inhibition compared to DMSO wells
test_readout: Giardia (16 uM) Mean % inhibition (%)

# compound, test_readout, recorded_value
rows = [
    ("CC(=O)NC[C@H]1CN(c2ccc(N3CCSCC3)c(F)c2)C(=O)O1 [MMV688756]", "Giardia (16 uM) Mean % inhibition", 22),
    ("COc1ccc(CCN2CCC(NCc3cccc(N(C)C)c3)CC2)cc1 [MMV011511]", "Giardia (16 uM) Mean % inhibition", 73),
    ("COc1cncc(-c2cncc(N3CCN(c4ccncc4)CC3)n2)c1 [MMV085071]", "Giardia (16 uM) Mean % inhibition", 19),
    ("CS(=O)(=O)N1CCC(CCn2nc(Cc3cccc4ccccc34)c3c(N)ncnc32)CC1 [MMV688470]", "Giardia (16 uM) Mean % inhibition", 23),
    ("CN1CCN(S(=O)(=O)c2ccc(-c3ccc4c(Nc5ncc(Cl)cn5)ccnc4c3)cc2)CC1 [MMV688283]", "Giardia (16 uM) Mean % inhibition", 95),
    ("COc1ccccc1OCCCCn1c(C2CC2)nc2ccccc21 [MMV676474]", "Giardia (16 uM) Mean % inhibition", 3.27),
    ("Cc1ccc(NC(=O)c2cc(S(=O)(=O)NC(C)(C)C)ccc2C)nc1 [MMV020289]", "Giardia (16 uM) Mean % inhibition", 26),
    ("CCCc1ccc(S(=O)(=O)Nc2ccc(CN3CCN(CC4CC4)CC3)cc2)cc1 [MMV688125]", "Giardia (16 uM) Mean % inhibition", 59),
    ("Cc1cc(OCC(=O)NCc2ccccc2)c2cc(Br)ccc2n1 [MMV687747]", "Giardia (16 uM) Mean % inhibition", 32),
    ("Cc1cc(C)c2cc(C(=O)NC3CCCCCCC3)[nH]c2c1 [MMV687146]", "Giardia (16 uM) Mean % inhibition", 15),
    ("O=C1COCc2ccc(Br)cc2N1Cc1ccc(C(F)(F)F)cc1 [MMV032995]", "Giardia (16 uM) Mean % inhibition", 38),
    ("Cc1ccc(-c2cc(C(=O)Nc3cccnc3)c3cc(Br)ccc3n2)cc1 [MMV016838]", "Giardia (16 uM) Mean % inhibition", 63),
    ("CCOc1ccc2cc(-c3nn(CC4CCN(C)CC4)c4ncnc(N)c34)ccc2c1 [MMV688854, reference compound]", "Giardia (16 uM) Mean % inhibition", 9),
    ("COC(=O)C1=C(C)NC(C)=C(C(=O)OC(C)C)[C@H]1c1cccc2nonc12 [MMV001493]", "Giardia (16 uM) Mean % inhibition", 25),
    ("CO/C=C(\\C(=O)OC)c1ccccc1Oc1cc(Oc2ccccc2C#N)ncn1 [MMV021057]", "Giardia (16 uM) Mean % inhibition", 3.75),
    ("COc1cc(C2=NCCN2)cc2cc(-c3ccc(C4=NCCN4)cc3)oc12 [MMV688362]", "Giardia (16 uM) Mean % inhibition", 54),
    ("COc1cccc2c(C)nc(N=C(N)N)nc12 [MMV000907]", "Giardia (16 uM) Mean % inhibition", 68),
    ("Cc1ccccc1CN1CCC(O)(c2ccc(Cl)c(C(F)(F)F)c2)CC1 [MMV688846]", "Giardia (16 uM) Mean % inhibition", 35),
    ("Cc1ccc(NC(=O)CC2COc3ccccc3O2)cc1Cl (centres unmarked) [MMV676431]", "Giardia (16 uM) Mean % inhibition", 18),
    ("c1cncc(NCc2ccc(-c3cc4ccncc4cc3OC3CCNCC3)s2)c1 [MMV023969]", "Giardia (16 uM) Mean % inhibition", 11),
    ("CCOc1ccc(-c2nc(CNCCc3ccc(F)cc3)cs2)cc1 [MMV688938]", "Giardia (16 uM) Mean % inhibition", 65),
    ("CS(=O)(=O)c1ccccc1C(=O)N(Cc1ccccc1)c1ccccc1 [MMV688798]", "Giardia (16 uM) Mean % inhibition", 9),
    ("COc1cc(Br)cc2cc(C(=O)Nc3cccc(C(F)(F)F)c3)c(=O)oc12 [MMV688891]", "Giardia (16 uM) Mean % inhibition", 7.41),
    ("COc1nc2ccc(Br)cc2cc1[C@@H](c1ccccc1)[C@@](O)(CCN(C)C)c1cccc2ccccc12 [MMV689758]", "Giardia (16 uM) Mean % inhibition", 62),
    ("Cc1ccc(C(=O)Nc2ccc(S(=O)(=O)O)c3cc(S(=O)(=O)O)cc(S(=O)(=O)O)c23)cc1NC(=O)c1cccc(NC(=O)Nc2cccc(C(=O)Nc3cc(C(=O)Nc4ccc(S(=O)(=O)O)c5cc(S(=O)(=O)O)cc(S(=O)(=O)O)c45)ccc3C)c2)c1 [MMV637953]", "Giardia (16 uM) Mean % inhibition", 10),
    ("FC(F)(F)c1cc(NCCc2ccccc2)nc(-c2ccccn2)n1 [MMV659010]", "Giardia (16 uM) Mean % inhibition", 41),
    ("CCS(=O)(=O)N(Cc1ccco1)Cc1cc2ccc(C)cc2[nH]c1=O [MMV676398]", "Giardia (16 uM) Mean % inhibition", 22),
    ("O=C1O[C@@H](COc2ccon2)CN1c1cc(F)c(C2=CCN(Cc3ccccc3)CC2)c(F)c1 [MMV687813]", "Giardia (16 uM) Mean % inhibition", 32),
    ("Nc1nc2cc(-c3cncc(Oc4ccc(F)cc4)c3)ccc2[nH]1 [MMV687248]", "Giardia (16 uM) Mean % inhibition", 22),
    ("COc1cc(OC)cc(C(=O)NCC2Cc3cc(Cl)cc(-c4ccncc4)c3O2)c1 (centres unmarked) [MMV007471]", "Giardia (16 uM) Mean % inhibition", 23),
]
